System: P. falciparum line B11
Assay: Parasite growth assay, wild-type B11 line
Format: cell-based
Details: Plasmodium falciparum, 96 h, read-out: EC50 parasite growth, B11 line
quantity.name: EC50 (nM)
# value in nM; strip the unit string

Reported EC50 ( CCN(CC)CCCC(C)Nc1ccnc2cc(Cl)ccc12 (stereo not shown) [CQ, chloroquine, reference compound] ) = 5.36

* * *

Biological target: recombinant PfSUB1 (rPfSUB1) (Plasmodium falciparum)
Construct: made in house
Sequence (Q8I0V0 218-688): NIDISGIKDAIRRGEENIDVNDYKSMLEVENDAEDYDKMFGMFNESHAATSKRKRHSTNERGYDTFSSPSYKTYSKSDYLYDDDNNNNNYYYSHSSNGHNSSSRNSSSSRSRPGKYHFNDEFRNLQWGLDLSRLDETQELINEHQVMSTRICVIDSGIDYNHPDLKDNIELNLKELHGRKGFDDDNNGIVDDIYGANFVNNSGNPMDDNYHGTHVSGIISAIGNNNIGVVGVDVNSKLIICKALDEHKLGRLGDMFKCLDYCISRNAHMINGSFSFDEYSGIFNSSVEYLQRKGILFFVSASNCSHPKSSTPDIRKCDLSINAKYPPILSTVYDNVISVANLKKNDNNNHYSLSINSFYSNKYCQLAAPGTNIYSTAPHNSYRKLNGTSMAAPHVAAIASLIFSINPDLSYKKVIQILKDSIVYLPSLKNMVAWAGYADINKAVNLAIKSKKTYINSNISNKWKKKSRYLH
Assay: PfSUB1 enzyme assay (recombinant PfSUB1, fluorogenic peptide substrate)
Assay type: biochemical
Details: rPfSUB1, substrate SERA4st1F-6R12 0.1 μM, 5 min preincubation, pH 8.2, fluorescence; duplicate; read-out: IC50, nM PfSUB1 inhibition
Heads up, the class ranges for IC50 are bottom bin: < 7 nM; middle bin: ≥ 7 nM and < 10 nM; top bin: ≥ 10 nM

Pick a category. Item: `CC(=O)N[C@H](C(=O)N[C@@H](CC1CCCC1)C(=O)NCC(=O)N[C@@H](C)B(O)O)C1CCCC1`
middle bin

Pick a category. Item: `CC(=O)N[C@H](C(=O)N[C@@H](CC1CCCCC1)C(=O)NCC(=O)N[C@@H](C)B(O)O)C1CCCC1`
bottom bin

Pick a category. Item: `CC[C@H](C)[C@H](NC(=O)[C@@H](NC(=O)c1ccc2ccccc2n1)C1CCCC1)C(=O)NCC(=O)N[C@@H](C)B(O)O`
middle bin

Pick a category. Item: `CC[C@H](C)[C@H](NC(=O)[C@@H](NC(=O)c1cccc(-c2ccccc2)n1)C1CCCC1)C(=O)NCC(=O)N[C@H]1CCC(=O)OB1O`
top bin

Pick a category. Item: `CC(=O)N[C@H](C(=O)N[C@H](C(=O)NCC(=O)N[C@@H](C)B(O)O)c1ccccc1)C1CCCC1`
bottom bin

Pick a category. Item: `CC[C@H](C)[C@H](NC(=O)[C@@H](NC(=O)c1cccc(-c2ccccc2)n1)C1CCCC1)C(=O)NCC(=O)N[C@@H](C)B(O)O`
middle bin

Pick a category. Item: `CC[C@H](C)[C@H](NC(=O)[C@@H](NC(=O)c1ccc2ccccc2n1)C1CCCC1)C(=O)NCC(=O)N[C@H]1CCC(=O)OB1O`
top bin

Pick a category. Item: `CC[C@H](C)[C@H](NC(=O)[C@@H](NC(=O)C(C)C)C1CCCC1)C(=O)NCC(=O)N[C@@H](C)B(O)O`
bottom bin

Pick a category. Item: `CC[C@H](C)[C@H](NC(=O)[C@@H](NCc1ccccn1)C1CCCC1)C(=O)NCC(=O)N[C@@H](C)B(O)O`
top bin
